// reported EC50 per item
- Test system: zymostenol accumulation (EBP) in EpiSC-derived OPCs
- Assay Summary: GC/MS-based sterol profiling, zymostenol accumulation in EpiSC-derived OPCs
- Assay type: cell-based, mouse
- Setup Conditions: Mus musculus, 24 h, EpiSC-derived OPCs, 24 hr, 8 doses from 0.15 nM to 333 nM; read-out: Mouse Zymostenol GCMS EC50

CC(C)n1nc(-c2cnc(C(F)(F)F)nc2)cc1[C@H]1[C@@H]2C[C@@H](N3CCOC[C@H]3C)C[C@@H]21 [Compound 96]: 928 nM

Qu. Report EC50, nothing else, for this compound: CC[C@@H]1CN([C@@H]2CC[C@H](c3nc(-c4cncc(F)c4)nn3C(C)C)C2)CCO1 [Compound 124]
Ans. 376 nM

Qu. Supply recorded EC50 for CC(C)n1nc(-c2cnc(C(F)(F)F)nc2)cc1[C@H]1CC[C@H](N2CCO[C@@H](CF)C2)C1 (single isomer, unassigned) [Compound 130*] here.
Ans. 619 nM

Qu. Please list EC50 recorded for the compound CC(C)n1nc(-c2cnc(C(F)(F)F)nc2)nc1[C@@H]1CC[C@@H](N2CCO[C@H](C)C2)C1 [Compound 149]
Ans. 129 nM

Qu. Answer with reported EC50 of CC(C)n1nc(-c2cccc(C(F)(F)F)n2)cc1[C@H]1[C@@H]2C[C@@H](N3CCOCC3)C[C@@H]21 [Compound 31]
Ans. 241 nM

Qu. Give the reported value of EC50 for this record: CC(C)n1nc(-c2cccc(OC(F)F)c2)nc1[C@H]1[C@@H]2C[C@H](N3CCOC[C@H]3C)C[C@@H]21 [Compound 76]
Ans. 1.18 nM

Qu. Query EC50 for FC(F)(F)c1cccc(-c2nc([C@H]3CC[C@@H](N4CCCOCC4)C3)n(C3CC3)n2)n1 (single isomer, unassigned) [10*]
Ans. 18 nM

Qu. Query EC50 for CC(C)n1nc(-c2ccc(C(F)(F)F)nc2)nc1[C@H]1[C@@H]2C[C@@H](N3CCCOCC3)C[C@@H]21 [Compound 16]
Ans. 203 nM

* * *

Observed pKi, system UniProt:Q15125.
Sequence (Q15125 whole entry): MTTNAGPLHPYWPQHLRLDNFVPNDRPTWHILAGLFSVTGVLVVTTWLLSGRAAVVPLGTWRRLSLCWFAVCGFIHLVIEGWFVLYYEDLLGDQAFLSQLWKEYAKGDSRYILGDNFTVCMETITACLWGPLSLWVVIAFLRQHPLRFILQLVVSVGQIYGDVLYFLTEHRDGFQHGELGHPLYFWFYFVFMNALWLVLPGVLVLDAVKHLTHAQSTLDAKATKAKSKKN
FYI, pKi means -log10 of a concentration in mol per litre.

CC(C)n1nc(-c2cncc(OC(F)F)c2)nc1[C@H]1[C@@H]2C[C@H](N3CCCOCC3)C[C@@H]21 [Compound 69]: 7.55
CC(C)n1nc(-c2cccc(OC(F)(F)F)c2)cc1[C@H]1[C@@H]2C[C@H](N3CCCOCC3)C[C@@H]21 [Compound 189*]: 8.04
CC(C)n1nc(-c2cccc(OC(F)F)c2)cc1[C@H]1[C@@H]2C[C@H](N3CCCOCC3)C[C@@H]21 (single isomer, unassigned) [Compound 199*]: 8.09
CC(C)n1nc(-c2cncc(C(F)(F)F)c2)cc1[C@H]1[C@@H]2C[C@H](N3CCOC[C@@H]3C)C[C@@H]21 (single isomer, unassigned) [45*]: 7.28
CC(C)n1nc(-c2cncc(C(F)(F)F)c2)cc1[C@H]1[C@@H]2C[C@@H](N3CCOC(C)(C)C3)C[C@@H]21 [Compound 33]: 7.71
CC(C)n1nc(-c2ccc(C(F)(F)F)c(F)c2)nc1[C@H]1CC[C@H](N2CCOCC2)C1 (single isomer, unassigned) [Compound 112*]: 7.04

Qu. Answer with the recorded pKi of CC(C)n1nc(-c2cncc(C(F)(F)F)c2)cc1[C@H]1[C@@H]2C[C@H](N3C[C@@H]4C[C@H]3CO4)C[C@@H]21 (single isomer, unassigned) [38*] only.
Ans. 7.32

Qu. Name the recorded pKi of the item CC(C)n1nc(-c2ccc(C(F)(F)F)c(F)c2)nc1[C@H]1CC[C@@H](N2CCOCC2)C1 (single isomer, unassigned) [Compound 111*] in your answer.
Ans. 7.35

Qu. State its pKi: CC(C)n1nc(-c2cncc(C(F)(F)F)c2)cc1[C@H]1[C@@H]2C[C@H](N3CCOC[C@H]3C)C[C@@H]21 (single isomer, unassigned) [46*]
Ans. 7.46
